molecular target: human recombinant CA VI (Homo sapiens, UniProt P23280); construct: recombinant human carbonic anhydrase catalytic domains using the fluorescent thermal shift assay; test: Fluorescent thermal shift assay (FTSA), CA VI; settings: 37° C., pH 7.0
Sequence (P23280 21-278 limits assumed): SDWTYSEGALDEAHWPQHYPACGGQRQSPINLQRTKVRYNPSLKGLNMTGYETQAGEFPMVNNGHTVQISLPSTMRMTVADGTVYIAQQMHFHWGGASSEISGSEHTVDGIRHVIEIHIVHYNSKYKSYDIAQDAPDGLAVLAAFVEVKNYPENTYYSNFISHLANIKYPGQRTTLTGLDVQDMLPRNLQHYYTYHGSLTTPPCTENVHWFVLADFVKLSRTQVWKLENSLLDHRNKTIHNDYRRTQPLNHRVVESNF
pKd: −log10 of the molar value.
pKd overview
Assay readout: pKd

{"columns": ["Molecule", "Assay readout", "Obs value"],
 "data": [
  ["NS(=O)(=O)c1c(F)c(F)c(S(=O)(=O)CCNC(=O)CCOCCOCCOCCOCCOCCOCCOCCOCCOCCOCCOCCOCCOCCC(=O)O)c(NC2CCCCCCC2)c1F", "pKd", 6.30],
  ["NS(=O)(=O)c1c(F)c(F)c(S(=O)(=O)CCNC(=O)CCOCCOCCOCCOCCOCCOCCOCCOCCOCCOCCOCCOCCNC(=O)CCCCC2SCC3NC(=O)NC32)c(NC2CCCCCCC2)c1F (centres unmarked)", "pKd", 6.01]
]}
